Assay: Cytotoxicity assay (CellTiter-Glo)
Format: cell-based
Details: human, 72 h incubation, concentration resulting in 50% luminescent signal
measured property: CC50 at 72 h (µM)
Numbers only, in µM.

Look over these answered cases.
COc1nc(N)nc2c1ncn2[C@@H]1O[C@H](COP(=O)(N[C@@H](C)C(=O)OCc2ccc(F)cc2F)Oc2cccc3ccccc23)[C@@H](F)[C@@]1(C)O (stereo partly drawn) = 68
C[C@H](NP(=O)(OC[C@H]1O[C@@H](n2ccc(=O)[nH]c2=O)[C@](C)(O)[C@@H]1F)Oc1cccc2ccccc12)C(=O)OCC(C)(C)C (stereo partly drawn) = 75

Shift focus to the following entry.
Q: Consider the molecule COc1nc(N)nc2c1ncn2[C@@H]1O[C@H](COP(=O)(N[C@H](C(=O)OCc2ccccc2)C(C)C)Oc2cccc3ccccc23)[C@H](F)[C@@]1(C)O (stereo partly drawn) and give its recorded CC50 at 72 h.
A: 19

* * *

For each entry below, report its CC50 at 72 h value.
Assay: Cytotoxicity assay (CellTiter-Glo)
Assay type: cell-based
Conditions: human, 72 h incubation, concentration resulting in 50% luminescent signal
Answers are plain numbers, in µM.

Look over these answered cases.
CCOc1nc(N)nc2c1ncn2[C@@H]1O[C@H](COP(=O)(N[C@@H](C)C(=O)OC2CCCC2)Oc2cccc3ccccc23)[C@@H](F)[C@@]1(C)O (some centres unmarked) = 28
COc1nc(N)nc2c1ncn2[C@@H]1O[C@H](COP(=O)(N[C@@H](C)C(=O)OC2CCCCC2)Oc2cccc3ccccc23)[C@@H](F)[C@@]1(C)O (some centres unmarked) = 30
COc1nc(N)nc2c1ncn2[C@@H]1O[C@H](COP(=O)(N[C@@H](C)C(=O)OCC(C)(C)C)Oc2cccc3ccccc23)[C@H](F)[C@@]1(C)O (some centres unmarked) = 40
COc1nc(N)nc2c1ncn2[C@@H]1O[C@H](COP(=O)(N[C@@H](C)C(=O)OCC(C)(C)C)Oc2cccc3ccccc23)[C@@H](F)[C@@]1(C)O (some centres unmarked) = 29
COc1nc(N)nc2c1ncn2[C@@H]1O[C@H](COP(=O)(N[C@@H](C)C(=O)OCc2ccccc2)Oc2cccc3ccccc23)[C@H](F)[C@@]1(C)O (some centres unmarked) = 92
COc1nc(N)nc2c1ncn2[C@@H]1O[C@H](COP(=O)(N[C@@H](C)C(=O)OC2CCOCC2)Oc2cccc3ccccc23)[C@@H](F)[C@@]1(C)O (some centres unmarked) = 77
COc1nc(N)nc2c1ncn2[C@@H]1O[C@H](COP(=O)(N[C@@H](C)C(=O)OC2CCCC2)Oc2cccc3ccccc23)[C@@H](F)[C@@]1(C)O (some centres unmarked) = 40
COc1nc(N)nc2c1ncn2[C@@H]1O[C@H](COP(=O)(N[C@H](C(=O)OCc2ccccc2)C(C)C)Oc2cccc3ccccc23)[C@@H](F)[C@@]1(C)O (some centres unmarked) = 14
C[C@H](NP(=O)(OC[C@H]1O[C@@H](n2cnc3c(N4CCC4)nc(N)nc32)[C@](C)(O)[C@@H]1F)Oc1cccc2ccccc12)C(=O)OC1CCCC1 (some centres unmarked) = 50

Shift focus to the following entry.
Q: Consider the molecule C[C@H](NP(=O)(OC[C@H]1O[C@@H](n2cnc3c(N4CCC4)nc(N)nc32)[C@](C)(O)[C@@H]1F)Oc1cccc2ccccc12)C(=O)OCC(C)(C)C (some centres unmarked) and give its recorded CC50 at 72 h.
A: 49

* * *

For each entry below, report its CC50 at 72 h value.
Assay: Cytotoxicity assay (CellTiter-Glo)
Format: cell-based
Settings: human, 72 h incubation, concentration resulting in 50% luminescent signal
State the result as a value with its unit after it.

COc1nc(N)nc2c1ncn2[C@@H]1O[C@H](COP(=O)(N[C@@H](C)C(=O)OCc2ccccc2)Oc2cccc3ccccc23)[C@@H](F)[C@@]1(C)O (stereo partly drawn) = 48 µM
CCOc1nc(N)nc2c1ncn2[C@@H]1O[C@H](COP(=O)(N[C@@H](C)C(=O)OCC(C)(C)C)Oc2cccc3ccccc23)[C@@H](F)[C@@]1(C)O (stereo partly drawn) = 23 µM

Shift focus to the following entry.
Q: Consider the compound COc1nc(N)nc2c1ncn2[C@@H]1O[C@H](COP(=O)(N[C@@H](C)C(=O)OCCC(C)(C)C)Oc2cccc3ccccc23)[C@@H](F)[C@@]1(C)O (stereo partly drawn) and give its recorded CC50 at 72 h.
A: 21 µM

* * *

For each entry below, report its CC50 at 72 h value.
Experiment: Cytotoxicity assay (CellTiter-Glo)
Assay type: cell-based
Conditions: human, 72 h incubation, concentration resulting in 50% luminescent signal
Numbers only, in µM.

Look over these answered cases.
CCCCOC(=O)[C@H](C)NP(=O)(OC[C@H]1O[C@@H](n2cnc3c(OC)nc(N)nc32)[C@](C)(O)[C@@H]1F)Oc1cccc2ccccc12 (stereo partly shown) = 40
C[C@H](NP(=O)(OC[C@H]1O[C@@H](n2cnc3c(N4CCC4)nc(N)nc32)[C@](C)(O)[C@@H]1F)Oc1cccc2ccccc12)C(=O)OC1CCCCC1 (stereo partly shown) = 33
C[C@H](NP(=O)(OC[C@H]1O[C@@H](n2cnc3c(N)ncnc32)[C@](C)(O)[C@@H]1F)Oc1cccc2ccccc12)C(=O)OCC(C)(C)C (stereo partly shown) = 31

Shift focus to the following entry.
Q: Consider the compound CCOc1nc(N)nc2c1ncn2[C@@H]1O[C@H](COP(=O)(N[C@@H](C)C(=O)OC2CCCCC2)Oc2cccc3ccccc23)[C@@H](F)[C@@]1(C)O (stereo partly shown) and give its recorded CC50 at 72 h.
A: 16

* * *

For each entry below, report its CC50 at 72 h value.
Assay: Cytotoxicity assay (CellTiter-Glo)
Type: cell-based
Details: human, Huh7 HCV replicon cells (genotype 1b), 72 h incubation, concentration resulting in 50% luminescent signal

Look over these answered cases.
COc1nc(N)nc2c1ncn2[C@@H]1O[C@H](COP(=O)(N[C@@H](C)C(=O)OCC(C)(C)C)N[C@@H](C)C(=O)OCC(C)(C)C)[C@@H](F)[C@@]1(C)O = > 100 µM
C[C@@]1(O)[C@H](F)[C@@H](CO)O[C@H]1n1cnc2c(N)ncnc21 = > 100 µM

Shift focus to the following entry.
Q: Consider the molecule C[C@@]1(O)[C@H](F)[C@@H](CO)O[C@H]1n1ccc(N)nc1=O and give its recorded CC50 at 72 h.
A: > 100 µM
